- test.target: CDK12/CycK (Homo sapiens, UniProt Q9NYV4)
- Sequence (Q9NYV4 whole entry): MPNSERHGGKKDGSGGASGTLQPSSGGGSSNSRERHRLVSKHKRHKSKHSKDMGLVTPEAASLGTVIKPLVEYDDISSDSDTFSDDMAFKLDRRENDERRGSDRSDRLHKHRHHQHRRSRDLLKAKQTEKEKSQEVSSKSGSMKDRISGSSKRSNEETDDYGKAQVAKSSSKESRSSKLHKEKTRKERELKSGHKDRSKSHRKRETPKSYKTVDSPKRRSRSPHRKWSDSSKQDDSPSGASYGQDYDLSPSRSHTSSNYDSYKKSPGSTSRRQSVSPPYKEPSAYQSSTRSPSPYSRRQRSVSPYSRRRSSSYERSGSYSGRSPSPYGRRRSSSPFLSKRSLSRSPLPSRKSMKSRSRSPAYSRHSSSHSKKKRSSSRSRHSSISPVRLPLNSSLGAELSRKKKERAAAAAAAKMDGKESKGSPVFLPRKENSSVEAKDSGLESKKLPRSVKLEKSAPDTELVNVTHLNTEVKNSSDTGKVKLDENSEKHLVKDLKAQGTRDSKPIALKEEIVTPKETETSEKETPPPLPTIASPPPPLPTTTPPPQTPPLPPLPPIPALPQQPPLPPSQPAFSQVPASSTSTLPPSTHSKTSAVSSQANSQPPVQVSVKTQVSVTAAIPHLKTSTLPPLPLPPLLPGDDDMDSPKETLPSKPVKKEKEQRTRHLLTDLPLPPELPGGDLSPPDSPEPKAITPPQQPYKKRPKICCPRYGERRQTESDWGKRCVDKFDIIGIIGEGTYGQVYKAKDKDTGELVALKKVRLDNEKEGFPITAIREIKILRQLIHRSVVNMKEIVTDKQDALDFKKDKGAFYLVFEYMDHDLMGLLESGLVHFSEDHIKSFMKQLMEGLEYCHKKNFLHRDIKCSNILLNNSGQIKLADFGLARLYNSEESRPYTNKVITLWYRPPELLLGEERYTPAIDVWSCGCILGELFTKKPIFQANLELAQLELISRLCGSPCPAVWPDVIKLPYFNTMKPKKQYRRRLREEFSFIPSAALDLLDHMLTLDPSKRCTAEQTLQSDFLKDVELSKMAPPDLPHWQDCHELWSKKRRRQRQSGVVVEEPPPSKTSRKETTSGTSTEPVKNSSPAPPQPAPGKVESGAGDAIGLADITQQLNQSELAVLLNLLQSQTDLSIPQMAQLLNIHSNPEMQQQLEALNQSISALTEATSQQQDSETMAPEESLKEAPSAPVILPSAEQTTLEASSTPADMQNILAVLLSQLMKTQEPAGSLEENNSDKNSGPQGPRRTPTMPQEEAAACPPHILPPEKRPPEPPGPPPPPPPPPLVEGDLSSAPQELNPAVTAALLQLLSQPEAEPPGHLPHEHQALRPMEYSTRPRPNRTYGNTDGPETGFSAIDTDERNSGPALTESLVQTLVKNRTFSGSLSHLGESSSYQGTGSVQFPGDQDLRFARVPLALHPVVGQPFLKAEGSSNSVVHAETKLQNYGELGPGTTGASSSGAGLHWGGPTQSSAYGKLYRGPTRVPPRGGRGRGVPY
- Sequence (O75909 whole entry partner): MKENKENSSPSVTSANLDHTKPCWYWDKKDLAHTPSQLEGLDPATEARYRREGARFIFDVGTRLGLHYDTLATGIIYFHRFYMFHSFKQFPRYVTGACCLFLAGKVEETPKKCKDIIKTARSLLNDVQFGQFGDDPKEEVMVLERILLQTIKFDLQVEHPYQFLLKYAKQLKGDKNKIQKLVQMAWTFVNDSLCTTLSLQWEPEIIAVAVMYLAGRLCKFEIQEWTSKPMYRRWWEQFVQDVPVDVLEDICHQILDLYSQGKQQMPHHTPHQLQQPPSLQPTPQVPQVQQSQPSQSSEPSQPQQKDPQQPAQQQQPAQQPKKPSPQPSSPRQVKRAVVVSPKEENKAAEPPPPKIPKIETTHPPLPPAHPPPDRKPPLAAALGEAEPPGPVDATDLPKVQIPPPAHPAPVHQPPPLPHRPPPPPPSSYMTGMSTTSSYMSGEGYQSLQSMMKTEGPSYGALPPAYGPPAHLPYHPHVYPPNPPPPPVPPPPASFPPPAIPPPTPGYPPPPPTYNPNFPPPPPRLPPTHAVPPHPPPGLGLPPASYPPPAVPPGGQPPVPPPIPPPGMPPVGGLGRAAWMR
- method: Inhibition of CDK12 (ADP-Glo kinase assay)
- experimental.parameters: 60 nM CDK12/CycK, 30 minutes pre-incubation, 1 μM ATP, 0.5 μM RBER-IRStide substrate, 1 h at 25° C., read-out: CDK12/cyclin K IC50
- Method: Assay buffer comprised 50 mM HEPES pH 7.5, 1 mM DTT, 20 mM MgCl2, 3 mM MnCl2, 3 μM Na3VO4 and 50 μg/ml PEG8000. Kinase reactions were carried out in 384-well Optiplates™ (PerkinElmer 6007299). […] Incubations were carried out for 1 h at 25° C. with kinase activity determined using the ADP-Glo™ reagent from Promega according to the manufacturer's instructions. Light generated is proportional to kinase activity and measured using a luminometer (EnVision, PerkinElmer). […]
Item-by-item account of IC50

> print(dat)
                                   compound  recorded.endpoint  reported.result
1  C=CC(=O)Nc1cncc(C(=O)N2CCC(c3cc4c(-c5cnn6ncccc56)ccnc4[nH]3)C2)c1 (stereo not drawn)               IC50         < 0.1 µM
2  C=C(C)C(=O)N1CCC[C@H]1C(=O)NCCc1cc2c(-c3cnn4ncccc34)ccnc2[nH]1               IC50       1 to 30 µM
3  C=CC(=O)Nc1cccc(C(=O)NCCCc2cc3c(-c4cnn5ncccc45)ccnc3[nH]2)c1               IC50         < 0.1 µM
4  N#CCC(=O)N1CCC[C@H]1C(=O)NCCc1cc2c(-c3cnn4ncccc34)ccnc2[nH]1               IC50      0.1 to 1 µM
5  CN1CCC(OCc2cc3c(-c4cnn5ncccc45)ccnc3[nH]2)CC1 [Example 167, diformate]               IC50       1 to 30 µM

Lookup: Would you kindly share the measured IC50 for "N#CN1CCC[C@H](C(=O)NCCc2cc3c(-c4cnn5ncccc45)ccnc3[nH]2)C1" ?
Found: 0.1 to 1 µM

Lookup: Would you kindly share the measured IC50 for "C=CC(=O)N1CCC[C@H]1C(=O)N(C)CCc1cc2c(-c3cnn4ncccc34)ccnc2[nH]1" ?
Found: 0.1 to 1 µM

Lookup: Would you kindly share the measured IC50 for "C=CC(=O)Nc1cccc(C(=O)N2CC[C@H](c3cc4c(-c5cnn6ncccc56)ccnc4[nH]3)C2)c1" ?
Found: < 0.1 µM

Lookup: Would you kindly share the measured IC50 for "c1cc(-c2ccc3[nH]nnc3c2)c2cc[nH]c2n1" ?
Found: 1 to 30 µM

Lookup: Would you kindly share the measured IC50 for "O=C(NCCc1cc2c(-c3cnn4ncccc34)ccnc2[nH]1)[C@@H]1CCCN1C(=O)CCl" ?
Found: 0.1 to 1 µM

----------
- test.target: CDK12/CycK (Homo sapiens, UniProt Q9NYV4)
- method: Inhibition of CDK12 (ADP-Glo kinase assay)
- Type: biochemical
- experimental.parameters: 60 nM CDK12/CycK, 30 minutes pre-incubation, 1 μM ATP, 0.5 μM RBER-IRStide substrate, 1 h at 25° C., read-out: CDK12/cyclin K IC50
recorded.endpoint: IC50

Below, each entry is followed by its recorded IC50 result.
> print(dat)
                                   compound  recorded.endpoint   reported.result
1  C=CC(=O)N1CCC[C@H]1C(=O)NCCc1cc2c(-c3cnn(C)c3)ccnc2[nH]1               IC50    100 to 1000 nM
2  CN(C)C/C=C/C(=O)Nc1cccc(C(=O)NCCc2cc3c(-c4cnn5ncccc45)ccnc3[nH]2)c1               IC50    100 to 1000 nM
3  C=CC(=O)Nc1ccc(C(=O)N2CCN(Cc3cc4c(-c5cnn6ncccc56)ccnc4[nH]3)CC2)cc1               IC50    100 to 1000 nM
4  C=CC(=O)N1CCC[C@H](C(=O)N(C)CCc2cc3c(-c4cnn5ncccc45)ccnc3[nH]2)C1               IC50    100 to 1000 nM
5  CCC(=O)Nc1ccc(C(=O)NCc2cc3c(-c4cnn5ncccc45)ccnc3[nH]2)cc1               IC50  1000 to 30000 nM
6     c1ccc(Cn2cc(-c3ccnc4[nH]ccc34)nn2)cc1               IC50  1000 to 30000 nM

Lookup: Would you kindly share the measured IC50 for "NCCc1cc2c(-c3cnn4ncccc34)ccnc2[nH]1" ?
Found: 100 to 1000 nM

Lookup: Would you kindly share the measured IC50 for C=CC(=O)N1CCC[C@H](C(=O)N2CCC(c3cc4c(-c5cnn6ncccc56)ccnc4[nH]3)C2)C1 (some centres unmarked) ?
Found: < 100 nM

----------
Item-by-item account of pIC50
- test.target: CDK12/CycK (Homo sapiens, UniProt Q9NYV4)
- method: Inhibition of CDK12 (ADP-Glo kinase assay)
- experimental.parameters: 60 nM CDK12/CycK, 30 minutes pre-incubation, 1 μM ATP, 0.5 μM RBER-IRStide substrate, 1 h at 25° C., read-out: CDK12/cyclin K IC50
- Procedure: Assay buffer comprised 50 mM HEPES pH 7.5, 1 mM DTT, 20 mM MgCl2, 3 mM MnCl2, 3 μM Na3VO4 and 50 μg/ml PEG8000. Kinase reactions were carried out in 384-well Optiplates™ (PerkinElmer 6007299). […] Incubations were carried out for 1 h at 25° C. with kinase activity determined using the ADP-Glo™ reagent from Promega according to the manufacturer's instructions. Light generated is proportional to kinase activity and measured using a luminometer (EnVision, PerkinElmer). […]
pIC50: −log10 of the molar value.

Below, each entry is followed by its recorded pIC50 result.
> print(dat)
                                   compound  reported.result
1  O=C(NCCc1cc2c(-c3cnn4ncccc34)ccnc2[nH]1)[C@@H]1CCCN1C(=O)/C=C/CN1CCCC1     4.52 to 6.00
2  CC(C)=CC(=O)N1CCC[C@H]1C(=O)NCCc1cc2c(-c3cnn4ncccc34)ccnc2[nH]1     6.00 to 7.00

Lookup: Would you kindly share the measured pIC50 for "C/C=C/C(=O)N1CCC[C@H]1C(=O)NCCc1cc2c(-c3cnn4ncccc34)ccnc2[nH]1" ?
Found: 4.52 to 6.00

Lookup: Would you kindly share the measured pIC50 for "C=CC(=O)N1CCC[C@H]1C(=O)NCCc1cc2c(-c3ccnn3C)ccnc2[nH]1" ?
Found: 4.52 to 6.00

Lookup: Would you kindly share the measured pIC50 for O=C([C@H]1CCCN1C(=O)CCl)N1CCC(c2cc3c(-c4cnn5ncccc45)ccnc3[nH]2)C1 (stereo partly drawn) ?
Found: > 7.00

Lookup: Would you kindly share the measured pIC50 for C=CC(=O)N1CCC[C@@H]1C(=O)N1CCC(c2cc3c(-c4cnn5ncccc45)ccnc3[nH]2)C1 (stereo partly drawn) ?
Found: > 7.00

Lookup: Would you kindly share the measured pIC50 for "C=CC(=O)N(C)c1ccc(C(=O)NCc2cc3c(-c4cnn5ncccc45)ccnc3[nH]2)cc1" ?
Found: 6.00 to 7.00

Lookup: Would you kindly share the measured pIC50 for "C=CC(=O)Nc1ccc(C(=O)N2CC[C@H](c3cc4c(-c5cnn6ncccc56)ccnc4[nH]3)C2)cc1" ?
Found: > 7.00

Lookup: Would you kindly share the measured pIC50 for "C=CC(=O)N1CCC[C@H]1C(=O)N[C@H]1C[C@@H](c2cc3c(-c4cnn5ncccc45)ccnc3[nH]2)C1" ?
Found: > 7.00

----------
- test.target: CDK12/CycK (Homo sapiens, UniProt Q9NYV4)
- method: Inhibition of CDK12 (ADP-Glo kinase assay)
- experimental.parameters: 60 nM CDK12/CycK, 30 minutes pre-incubation, 1 μM ATP, 0.5 μM RBER-IRStide substrate, 1 h at 25° C., read-out: CDK12/cyclin K IC50
recorded.endpoint: IC50

Lookup: Would you kindly share the measured IC50 for "O=C(NCc1cc2c(-c3cnn4ncccc34)ccnc2[nH]1)C1CC1" ?
Found: 1000 to 30000 nM

----------
Item-by-item account of IC50
- test.target: CDK12/CycK (Homo sapiens)
- method: Inhibition of CDK12 (ADP-Glo kinase assay)
- Type: biochemical
- experimental.parameters: 60 nM CDK12/CycK, 30 minutes pre-incubation, 1 μM ATP, 0.5 μM RBER-IRStide substrate, 1 h at 25° C., read-out: CDK12/cyclin K IC50
- Description: Assay buffer comprised 50 mM HEPES pH 7.5, 1 mM DTT, 20 mM MgCl2, 3 mM MnCl2, 3 μM Na3VO4 and 50 μg/ml PEG8000. Kinase reactions were carried out in 384-well Optiplates™ (PerkinElmer 6007299). […] Incubations were carried out for 1 h at 25° C. with kinase activity determined using the ADP-Glo™ reagent from Promega according to the manufacturer's instructions. Light generated is proportional to kinase activity and measured using a luminometer (EnVision, PerkinElmer). […]

Below, each entry is followed by its recorded IC50 result.
> print(dat)
                                   compound                test.target  recorded.endpoint   reported.result
1  O=C(NCCc1cc2c(-c3ccncc3)ccnc2[nH]1)[C@@H]1CCCN1 [Example 107]  CDK12/CycK (Homo sapiens)               IC50  1000 to 30000 nM
2  CC#CC(=O)N1CCC[C@H]1C(=O)NCCc1cc2c(-c3cnn4ncccc34)ccnc2[nH]1 [Example 83]  CDK12/CycK (Homo sapiens)               IC50    100 to 1000 nM
3  Cc1cc(-c2cnn3ncccc23)c2cc[nH]c2n1 [Example 1]  CDK12/CycK (Homo sapiens)               IC50  1000 to 30000 nM

Lookup: Would you kindly share the measured IC50 for CN(C)C/C=C/C(=O)N1CC[C@@H](C(=O)N2CCC(c3cc4c(-c5cnn6ncccc56)ccnc4[nH]3)CC2)C1 [Example 67] ?
Found: < 100 nM

Lookup: Would you kindly share the measured IC50 for C=CC(=O)N[C@H]1CC[C@@H](C(=O)NCc2cc3c(-c4cnn5ncccc45)ccnc3[nH]2)CC1 [Example 187] ?
Found: 1000 to 30000 nM

Lookup: Would you kindly share the measured IC50 for O=C(CCl)Nc1cccc(C(=O)N2CCC(c3cc4c(-c5cnn6ncccc56)ccnc4[nH]3)C2)c1 (centres unmarked) [Example 145] ?
Found: < 100 nM

Lookup: Would you kindly share the measured IC50 for C=CC(=O)N1CC[C@@H](C(=O)NCc2cc3c(-c4cnn5ncccc45)ccnc3[nH]2)C1 [Example 179] ?
Found: 1000 to 30000 nM

Lookup: Would you kindly share the measured IC50 for O=C(CCl)Nc1cccc(C(=O)N2CC[C@@H](c3cc4c(-c5cnn6ncccc56)ccnc4[nH]3)C2)c1 [Example 159] ?
Found: < 100 nM
